Assignment: determine reported IC50 for the given molecules.
STUDY_TARGET: EZH2 Mutant Y641N (Homo sapiens (Human), UniProt Q15910, Y641N)
Sequence (Q15910 whole entry Y641N, looked up): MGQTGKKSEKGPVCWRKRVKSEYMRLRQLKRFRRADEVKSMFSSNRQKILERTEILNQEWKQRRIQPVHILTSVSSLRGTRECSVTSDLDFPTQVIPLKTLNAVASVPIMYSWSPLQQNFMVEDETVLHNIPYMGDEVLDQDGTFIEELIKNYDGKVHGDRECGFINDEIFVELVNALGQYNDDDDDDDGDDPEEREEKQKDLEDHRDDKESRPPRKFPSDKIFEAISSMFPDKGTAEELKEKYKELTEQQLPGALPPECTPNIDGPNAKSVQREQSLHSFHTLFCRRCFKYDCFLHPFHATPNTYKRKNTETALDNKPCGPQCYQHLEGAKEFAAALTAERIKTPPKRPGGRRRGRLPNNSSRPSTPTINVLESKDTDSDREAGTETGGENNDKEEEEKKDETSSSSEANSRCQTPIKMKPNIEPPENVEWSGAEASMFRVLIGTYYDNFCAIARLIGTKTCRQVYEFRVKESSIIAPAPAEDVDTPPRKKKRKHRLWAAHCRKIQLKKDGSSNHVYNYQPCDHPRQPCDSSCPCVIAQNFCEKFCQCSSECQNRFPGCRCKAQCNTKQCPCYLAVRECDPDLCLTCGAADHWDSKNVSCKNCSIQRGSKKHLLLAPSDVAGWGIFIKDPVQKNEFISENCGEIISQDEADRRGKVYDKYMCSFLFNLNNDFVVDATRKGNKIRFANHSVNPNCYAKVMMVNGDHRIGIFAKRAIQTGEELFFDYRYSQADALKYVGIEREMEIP
Sequence (O75530 whole entry partner, looked up): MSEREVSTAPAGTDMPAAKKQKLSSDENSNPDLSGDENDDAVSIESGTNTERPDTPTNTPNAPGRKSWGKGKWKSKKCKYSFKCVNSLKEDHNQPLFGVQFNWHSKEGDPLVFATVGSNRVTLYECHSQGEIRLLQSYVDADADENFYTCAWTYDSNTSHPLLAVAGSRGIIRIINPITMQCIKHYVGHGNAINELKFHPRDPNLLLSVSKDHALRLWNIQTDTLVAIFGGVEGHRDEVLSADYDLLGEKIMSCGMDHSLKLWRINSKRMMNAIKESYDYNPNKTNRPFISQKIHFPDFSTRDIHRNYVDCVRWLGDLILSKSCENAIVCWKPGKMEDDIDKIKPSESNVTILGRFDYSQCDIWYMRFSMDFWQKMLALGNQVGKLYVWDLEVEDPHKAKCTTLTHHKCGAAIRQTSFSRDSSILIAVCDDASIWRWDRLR
Sequence (Q15022 whole entry partner, looked up): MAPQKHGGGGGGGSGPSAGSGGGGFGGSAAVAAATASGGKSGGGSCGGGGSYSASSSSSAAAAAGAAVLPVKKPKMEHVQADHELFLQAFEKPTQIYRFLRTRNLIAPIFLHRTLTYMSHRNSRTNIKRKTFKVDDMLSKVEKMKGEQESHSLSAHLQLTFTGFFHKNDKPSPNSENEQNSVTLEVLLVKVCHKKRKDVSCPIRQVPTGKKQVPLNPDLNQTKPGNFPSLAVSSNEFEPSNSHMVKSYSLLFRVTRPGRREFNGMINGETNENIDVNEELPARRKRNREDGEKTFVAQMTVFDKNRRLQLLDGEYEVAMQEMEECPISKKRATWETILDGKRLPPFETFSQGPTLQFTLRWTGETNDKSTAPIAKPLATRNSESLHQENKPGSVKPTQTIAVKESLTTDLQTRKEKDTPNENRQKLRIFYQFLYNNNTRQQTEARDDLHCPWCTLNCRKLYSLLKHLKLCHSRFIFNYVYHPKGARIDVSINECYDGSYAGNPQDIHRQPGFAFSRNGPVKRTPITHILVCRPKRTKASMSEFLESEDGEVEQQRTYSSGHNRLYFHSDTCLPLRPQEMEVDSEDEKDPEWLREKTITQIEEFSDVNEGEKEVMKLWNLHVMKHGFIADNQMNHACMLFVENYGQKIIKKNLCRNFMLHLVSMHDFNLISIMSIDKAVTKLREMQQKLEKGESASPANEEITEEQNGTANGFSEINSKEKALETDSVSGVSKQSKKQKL
Sequence (Q09028 whole entry partner, looked up): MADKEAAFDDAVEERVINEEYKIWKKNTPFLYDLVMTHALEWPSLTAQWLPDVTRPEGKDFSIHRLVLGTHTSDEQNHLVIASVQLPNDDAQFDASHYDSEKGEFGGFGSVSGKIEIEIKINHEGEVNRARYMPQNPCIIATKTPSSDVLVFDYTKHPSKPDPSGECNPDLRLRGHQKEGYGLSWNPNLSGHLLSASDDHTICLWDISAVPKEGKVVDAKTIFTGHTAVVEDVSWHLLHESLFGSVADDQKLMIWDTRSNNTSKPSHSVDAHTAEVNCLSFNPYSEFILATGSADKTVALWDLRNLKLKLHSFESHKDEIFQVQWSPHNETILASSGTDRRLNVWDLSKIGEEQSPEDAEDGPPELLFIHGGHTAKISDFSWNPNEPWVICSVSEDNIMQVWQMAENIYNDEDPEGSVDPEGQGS
ASSAY_NAME: EZH2 Mutant Y641N nucleosome assay
Format: biochemical
RECORDED_CONDITIONS: PRC2 4-protein complex 6 nM, 1.5 μM SAM, HeLa oligonucleosomes; read-out: EZH2 Mutant Y641N Nucleosome assay IC50
One number for each entry, in nM.

{"MOLECULE": "Cc1cc(OC(F)F)c(CN2CCc3c(Cl)cc(C(CO)C4CCOC4)c(Cl)c3C2=O)c(=O)[nH]1 (single isomer, unassigned) [Example 93]", "UNIT_INFO": "nM", "IC50": 1330}
{"MOLECULE": "COC(c1cc(Cl)c2c(c1Cl)C(=O)N(Cc1c(C)cc(C)[nH]c1=O)CC2)C1CCS(=O)(=O)C1 (single isomer, unassigned) [Example 148]", "UNIT_INFO": "nM", "IC50": 439}
{"MOLECULE": "Cc1cc(C)c(CN2CCc3c(C)cc(C(CO)C4CCOCC4)c(Cl)c3C2=O)c(=O)[nH]1 (single isomer, unassigned) [Example 100]", "UNIT_INFO": "nM", "IC50": 3730}
{"MOLECULE": "COc1cc(C)[nH]c(=O)c1CN1CCc2c(Cl)cc(C(OC)C3CCN(C(C)=O)CC3)c(Cl)c2C1=O (single isomer, unassigned) [Example 122]", "UNIT_INFO": "nM", "IC50": 236}
{"MOLECULE": "Cc1cc(C)c(CN2CCc3c(Cl)cc(CC(=O)O)c(Cl)c3C2=O)c(=O)[nH]1 [Example 22]", "UNIT_INFO": "nM", "IC50": 95200}
{"MOLECULE": "Cc1cc(C)c(CN2CCc3c(Cl)cc(C(C)CCO)c(Cl)c3C2=O)c(=O)[nH]1 (racemic) [Example 33]", "UNIT_INFO": "nM", "IC50": 70}
{"MOLECULE": "Cc1cc(C)c(CN2CCc3c(Cl)cc([C@@H](C)CO)c(Cl)c3C2=O)c(=O)[nH]1 [Example 19]", "UNIT_INFO": "nM", "IC50": 132}
{"MOLECULE": "COc1cc(C)[nH]c(=O)c1CN1CCc2c(Cl)cc(C(OC)C3CCN(C=O)CC3)c(Cl)c2C1=O (single isomer, unassigned) [Example 119]", "UNIT_INFO": "nM", "IC50": 100}
{"MOLECULE": "COc1cc(C)[nH]c(=O)c1CN1CCc2c(C)cc([C@H](OC)[C@H]3CCOC3)c(Cl)c2C1=O (single isomer, unassigned) [Example 84]", "UNIT_INFO": "nM", "IC50": 2}
{"MOLECULE": "Cc1cc(C)c(CN2CCc3c(Cl)cc(C(C)C4CN(C(=O)CO)C4)c(Cl)c3C2=O)c(=O)[nH]1 (single isomer, unassigned) [Example 184]", "UNIT_INFO": "nM", "IC50": 5}

For each listed entry, give its IC50.
1. Cc1cc(C)c(CN2CCc3c(Cl)cc(C(C)C4CNC4)c(Cl)c3C2=O)c(=O)[nH]1 (single isomer, unassigned) [Example 190]
2. Cc1cc(C)c(CN2CCc3ccc(C(CO)C4CCOC4)c(Cl)c3C2=O)c(=O)[nH]1 (single isomer, unassigned) [Example 97]
3. COc1cc(C)[nH]c(=O)c1CN1CCc2c(Cl)cc([C@H](OC)C3COC3)c(Cl)c2C1=O [Example 81]
4. Cc1cc(C)c(CN2CCc3c(Cl)cc(C(C)C4CN(S(C)(=O)=O)C4)c(Cl)c3C2=O)c(=O)[nH]1 (single isomer, unassigned) [Example 186]
5. COc1cc(C)[nH]c(=O)c1CN1CCc2c(Cl)cc(C(OC)C3CCN(C=O)CC3)c(Cl)c2C1=O (single isomer, unassigned) [Example 118]
6. Cc1cc(C)c(CN2CCc3c(Cl)cc(C(CO)N4CCOCC4)c(Cl)c3C2=O)c(=O)[nH]1 (single isomer, unassigned) [Example 69]

OUT:
100
27
3
240
3
4310

For each listed entry, give its IC50.
1. COC(CO)c1cc(Cl)c2c(c1Cl)C(=O)N(Cc1c(C)cc(C)[nH]c1=O)CC2 (single isomer, unassigned) [Example 11]
2. Cc1cc(C)c(CN2CCc3c(Cl)cc(C(C)C#N)c(Cl)c3C2=O)c(=O)[nH]1 (racemic) [Example 32]

OUT:
1. 174
2. 1130
